Value source: patent US20050203189A1

Below, each entry is listed with its recorded pIC50.
# TARGET_ENTITY: Rat renal cortex-derived BLMVs Na+/Ca2+ exchanger (Rattus norvegicus, UniProt Q01728)
# Construct: BLMVs were prepared from rat renal cortex
# EXPERIMENT: Rat renal cortex-derived BLMV Na+/Ca2+ exchange activity, Na-dependent 45Ca uptake
# MEASUREMENT_PARAMETERS: rat renal cortex BLMVs; read-out: Inhibitory activity against Na+/Ca2+ exchange (Na-dependent 45Ca uptake), IC50 value, Renal cortex
Reminder that pIC50 means the negative base-10 logarithm of the concentration expressed in mol/L.

The compound `CCOc1ccc(Oc2ccc(OCc3cc(F)ccc3F)cc2)c(N)c1` showed pIC50 equal to 7.70

The compound N=C(N)SCCc1ccc(OCc2ccc([N+](=O)[O-])cc2)cc1 [K-BR7943, reference compound] showed pIC50 equal to 5.17
